MIC reference
Test system: Staphylococcus aureus 6538-P
Assay: Antibacterial activity, minimum inhibition concentration (method of The Chemotherapy Association, Japan)
Assay type: cell-based
Settings: strain A: Staphylococcus aureus 6538-P; read-out: minimum inhibition concentration
Procedure: Antibacterial activities of the compounds according to this invention, which had been prepared in the preceding Examples, were measured according to the method prescribed by The Committee of Amendment of "The method for measurement of the minimum inhibition concentration", The Chemotherapy Association, Japan (See Chemotherapy, Vol. 22, No. 6, pp. 1126 - 1128 (1974) and Vol. 29, No. 1, pp. 76 - 79 (1981)). The abbreviations A to P will be used in the following Tables 2 to 8. […]
Structures can show the parent of a compound that is named as a salt.
Provide the reading as a plain figure in mg/L.

Check out these entries, answers already filled in.
> print(dat)
                                   molecule                    systemname  measured
1  Cn1nnnc1SCC1=C(C(=O)O)N2C(=O)C(NC(=O)C(=CCl)c3csc(N)n3)C2SC1 (stereo not shown) [11-(3), sodium salt]  Staphylococcus aureus 6538-P      0.39
2  CC(=O)OCC1=C(C(=O)O)N2C(=O)C(NC(=O)C(=C(Cl)Cl)c3ccc(N)cc3)[C@H]2SC1 (stereo partly shown) [4-(2)]  Staphylococcus aureus 6538-P      0.39
3  CC(=O)OCC1=C(C(=O)O)N2C(=O)C(NC(=O)C(=C(Cl)Cl)c3ccco3)[C@H]2SC1 (stereo partly shown) [Compound 33]  Staphylococcus aureus 6538-P      0.39
4  CC(=O)OCC1=C(C(=O)O)N2C(=O)C(NC(=O)C(=C(Cl)Cl)c3ccc(O)cc3)[C@H]2SC1 (stereo partly shown) [Compound 2]  Staphylococcus aureus 6538-P      0.39
5  CC(=O)OCC1=C(C(=O)O)N2C(=O)C(NC(=O)C(=C(Cl)Cl)c3cccs3)[C@H]2SC1 (stereo partly shown) [Compound 41]  Staphylococcus aureus 6538-P       0.2
6  CC(=O)OCC1=C(C(=O)O)N2C(=O)C(NC(=O)C(=C(Cl)Cl)c3ccsc3)[C@H]2SC1 (stereo partly shown) [Compound 40]  Staphylococcus aureus 6538-P      0.39
7  Nc1nc(C(=CCl)C(=O)NC2C(=O)N3C(C(=O)[O-])=C(C[n+]4ccccc4)CSC23)cs1 (stereo not shown) [Compound 24]  Staphylococcus aureus 6538-P      6.25
8  Cn1nnnc1SCC1=C(C(=O)O)N2C(=O)C(NC(=O)C(=C(Cl)Cl)c3ccco3)C2SC1 (stereo not shown) [Compound 1]  Staphylococcus aureus 6538-P      0.39

Give the reported MIC for CC(=O)OCC1=C(C(=O)O)N2C(=O)C(NC(=O)C(=C(Cl)Cl)c3ccc(Cl)s3)[C@H]2SC1 (stereo partly shown) [Compound 31] (system: Staphylococcus aureus 6538-P).
0.2

Give the reported MIC for Cn1nnnc1SCC1=C(C(=O)O)N2C(=O)C(NC(=O)C(=C(Cl)Cl)c3csc(N)n3)C2SC1 (stereo not shown) [6-(2)] (system: Staphylococcus aureus 6538-P).
0.78
